- Test system: S180 sarcoma
- RUN CONDITIONS: S180 sarcoma; Dosage 50 (mg/ml), ip × 10qd; first time
Collected Body weight of the animals, beginning, First time values appear next to each entry.
Give the value; after it, write the unit.

For orientation, consider the following solved cases.
c1ccc(Cn2c3ccccc3c3ccncc32)cc1 [Compound 84, 9-Benzyl-β-carboline] = 19.6 g
CCOC(=O)c1cc2c(cn1)[nH]c1ccccc12 [Compound 10, ethyl β-carboline-3-carboxylate] = 20.0 g
CCOC(=O)c1cc2c([nH]c3ccccc32)c(C)n1 [Compound 11, ethyl 1-methyl-β-carboline-3-carboxylate] = 19.5 g
CCOC(=O)Nc1cc2c3ccccc3n(Cc3ccccc3)c2cn1 [Compound 55] = 19.8 g
O=C(O)c1cc2c3ccccc3n(Cc3ccccc3)c2cn1 [Compound 37, 9-benzyl-β-carboline-3-carboxylic acid] = 19.7 g

Challenge: Please look at OCc1cc2c3ccccc3n(Cc3ccccc3)c2cn1 [Compound 42, 9-benzyl-3-hydroxymethyl-β-carboline] and tell me its recorded Body weight of the animals, beginning, First time on S180 sarcoma.
Response given: 19.5 g

Challenge: Report its Body weight of the animals, beginning, First time with S180 sarcoma as the test system: CCCCn1c2ccccc2c2cc(C(=O)O)ncc21 [Compound 36, 9-butyl-β-carboline-3-carboxylic acid]
Response given: 19.1 g

Challenge: Fill in Body weight of the animals, beginning, First time for O=C(O)c1cc2c3ccccc3n(CCCc3ccccc3)c2cn1 [Compound 48] tested with S180 sarcoma.
Response given: 19.4 g

Challenge: Enter recorded Body weight of the animals, beginning, First time with S180 sarcoma for O=C(O)c1cc2c(cn1)[nH]c1ccccc12 [Compound 17, β-carboline-3-carboxylic acid] here.
Response given: 19.2 g

Challenge: Please report the measured Body weight of the animals, beginning, First time for COC(=O)c1cc2c([nH]c3ccccc32)c(-c2ccccc2)n1 [Compound 14] tested on S180 sarcoma.
Response given: 19.8 g

Challenge: Please look at CCOC(=O)c1cc2c3ccccc3n(Cc3ccccc3)c2cn1 [Compound 33, ethyl 9-benzyl-β-carboline-3-carboxylate] and tell me its recorded Body weight of the animals, beginning, First time on S180 sarcoma.
Response given: 19.4 g

Challenge: Jot down Body weight of the animals, beginning, First time (S180 sarcoma) of COC(=O)c1cc2c([nH]c3ccccc32)c(-c2ccc(OC)cc2)n1 [Compound 15] .
Response given: 19.8 g

Challenge: Fetch value of Body weight of the animals, beginning, First time on S180 sarcoma for CCOC(=O)c1cc2c3ccccc3n(CC)c2cn1 [Compound 31, ethyl 9-ethyl-β-carboline-3-carboxylate] .
Response given: 19.7 g

Data origin, for the record: patent US20090227619A1
